Experiment: Circular dichroism (CD) α-helicity
Assay type: physicochemical
Settings: Table 1; CD of free peptide, 25 °C, 1 mM Hepes pH 7.4, 5% methanol
Bridge positions count the residues as written; N and C are the ends. Square brackets hold non-standard residues; d marks the D form. Peptide text beside a SMILES is read from it. R8 = C=CCCCCCC[C@@](C)(N)C(=O)O; Cba = N[C@@H](CC1CCC1)C(=O)O; S5 = C=CCCC[C@](C)(N)C(=O)O
MEASURED_METRIC: Helicity (%)

[[record]]
molecule = "CC(=O)N[C@@H](CC(C)C)C(=O)N[C@H](C(=O)N[C@@H](Cc1ccccc1)C(=O)N[C@]1(C)CCCCCCC=CCCC[C@@](C)(C(=O)N[C@@H](CO)C(=O)N[C@@H](C)C(=O)N[C@@H](C)C(N)=O)NC(=O)[C@H](CC2CCC2)NC(=O)[C@H](CC(C)C)NC(=O)[C@H](CCC(N)=O)NC(=O)[C@H](Cc2c[nH]c3ccccc23)NC(=O)[C@H](C)NC(=O)[C@H](CCC(=O)O)NC1=O)[C@@H](C)O [Peptide Y6A] (Ac-LTF[R8]EAWQL[Cba][S5]SAA-NH2; staple 4-11)"
unit = "%"
numeric_result = 50.3

[[record]]
molecule = "CC(=O)N[C@@H](CC(C)C)C(=O)N[C@H](C(=O)N[C@@H](Cc1ccccc1)C(=O)N[C@]1(C)CCCCCCC=CCCC[C@@](C)(C(=O)N[C@@H](C)C(=O)N[C@@H](C)C(=O)N[C@@H](C)C(N)=O)NC(=O)[C@H](CC2CCC2)NC(=O)[C@H](CC(C)C)NC(=O)[C@H](CCC(N)=O)NC(=O)[C@H](Cc2c[nH]c3ccccc23)NC(=O)[C@H](Cc2ccc(O)cc2)NC(=O)[C@H](CCC(=O)O)NC1=O)[C@@H](C)O [Peptide S12A] (Ac-LTF[R8]EYWQL[Cba][S5]AAA-NH2; staple 4-11)"
unit = "%"
numeric_result = 36.5

[[record]]
molecule = "CC(=O)N[C@@H](CC(C)C)C(=O)N[C@H](C(=O)N[C@@H](Cc1ccccc1)C(=O)N[C@]1(C)CCCCCCC=CCCC[C@@](C)(C(=O)N[C@@H](CO)C(=O)N[C@@H](C)C(=O)N[C@@H](C)C(N)=O)NC(=O)[C@H](CC2CCC2)NC(=O)[C@H](CC(C)C)NC(=O)[C@H](CCC(N)=O)NC(=O)[C@H](Cc2c[nH]c3ccccc23)NC(=O)[C@H](Cc2ccc(O)cc2)NC(=O)[C@H](CCC(=O)O)NC1=O)[C@@H](C)O"
unit = "%"
numeric_result = 32.8

[[record]]
molecule = "CC(=O)N[C@@H](CC(C)C)C(=O)N[C@H](C(=O)N[C@@H](Cc1ccccc1)C(=O)NC(C)(C)C(=O)N[C@@H](CCC(=O)O)C(=O)N[C@@H](Cc1ccc(O)cc1)C(=O)N[C@@H](Cc1c[nH]c2ccccc12)C(=O)N[C@H](CCC(N)=O)C(=O)N[C@@H](CC(C)C)C(=O)N[C@@H](CC1CCC1)C(=O)NC(C)(C)C(=O)N[C@@H](CO)C(=O)N[C@@H](C)C(=O)N[C@@H](C)C(N)=O)[C@@H](C)O"
unit = "%"
numeric_result = 21.8


###

Molecular target: human Mdm2 1–125 (Homo sapiens)
Construct: GST (N); His6 (internal); TEV cleavage site ENLYFQG (internal); made in house; host or cells: Escherichia coli BL21 (DE3) Rosetta T1R
Sequence (Q00987 with tags, fused parts or gaps): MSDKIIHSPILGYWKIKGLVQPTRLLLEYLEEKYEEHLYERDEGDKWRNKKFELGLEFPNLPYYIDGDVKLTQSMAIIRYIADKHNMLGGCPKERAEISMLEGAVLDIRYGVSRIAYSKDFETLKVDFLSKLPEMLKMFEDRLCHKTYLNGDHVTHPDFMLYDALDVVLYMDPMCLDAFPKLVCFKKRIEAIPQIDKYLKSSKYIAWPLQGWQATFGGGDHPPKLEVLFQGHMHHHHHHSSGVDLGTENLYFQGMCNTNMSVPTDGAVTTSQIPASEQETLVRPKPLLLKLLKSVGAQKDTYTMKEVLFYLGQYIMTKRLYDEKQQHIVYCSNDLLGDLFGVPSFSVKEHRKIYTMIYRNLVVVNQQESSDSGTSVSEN
Assay: Mdm2 binding assay (competitive fluorescence anisotropy/polarization)
Conditions: Table 1; competitive fluorescence polarization; read-out: Mdm2 (nM), Mdm2 binding (Kd)
Bridge positions count the residues as written; N and C are the ends. Square brackets hold non-standard residues; d marks the D form. Peptide text beside a SMILES is read from it. R8 = C=CCCCCCC[C@@](C)(N)C(=O)O; Cba = N[C@@H](CC1CCC1)C(=O)O; S5 = C=CCCC[C@](C)(N)C(=O)O
Measured Kd, listed per entry for reference.
MEASURED_METRIC: Kd (nM)

[[record]]
compound = "CC(=O)N[C@@H](CC(C)C)C(=O)N[C@H](C(=O)N[C@@H](Cc1ccccc1)C(=O)N[C@]1(C)CCCCCCC=CCCC[C@@](C)(C(=O)N[C@@H](CO)C(=O)N[C@H](C)C(=O)N[C@@H](C)C(N)=O)NC(=O)[C@H](CC2CCC2)NC(=O)[C@H](CC(C)C)NC(=O)[C@H](CCC(N)=O)NC(=O)[C@H](Cc2c[nH]c3ccccc23)NC(=O)[C@H](Cc2ccc(O)cc2)NC(=O)[C@H](CCC(=O)O)NC1=O)[C@@H](C)O [A13(D-Ala)]"
measured_metric = "Kd"
numeric_result = 17

[[record]]
compound = "CC(=O)N[C@@H](C)C(=O)N[C@H](C(=O)N[C@@H](Cc1ccccc1)C(=O)N[C@]1(C)CCCCCCC=CCCC[C@@](C)(C(=O)N[C@@H](CO)C(=O)N[C@@H](C)C(=O)N[C@@H](C)C(N)=O)NC(=O)[C@H](CC2CCC2)NC(=O)[C@H](CC(C)C)NC(=O)[C@H](CCC(N)=O)NC(=O)[C@H](Cc2c[nH]c3ccccc23)NC(=O)[C@H](Cc2ccc(O)cc2)NC(=O)[C@H](CCC(=O)O)NC1=O)[C@@H](C)O [Peptide L1A] (Ac-ATF[R8]EYWQL[Cba][S5]SAA-NH2; staple 4-11)"
measured_metric = "Kd"
numeric_result = 17.6

[[record]]
compound = "CC(=O)N[C@@H](CC(C)C)C(=O)N[C@H](C(=O)N[C@@H](Cc1ccccc1)C(=O)NC(C)(C)C(=O)N[C@H](CCC(=O)O)C(=O)N[C@@H](Cc1ccc(O)cc1)C(=O)N[C@@H](Cc1c[nH]c2ccccc12)C(=O)N[C@@H](CCC(N)=O)C(=O)N[C@@H](CC(C)C)C(=O)N[C@@H](CC1CCC1)C(=O)NC(C)(C)C(=O)N[C@@H](CO)C(=O)N[C@@H](C)C(=O)N[C@@H](C)C(N)=O)[C@@H](C)O [Linear E5(D-Glu)]"
measured_metric = "Kd"
numeric_result = 135

